Test system: MS2 coat protein
assay: apparent KD of MS2 coat protein, switch OFF state (with FMN for OFF switches, without FMN for ON switches); designed switch direction (-1 OFF switch, 1 ON switch): 1; higher = weaker reporter binding
test_conditions: FMN input: 0 or 200 uM; Eterna round: R93 (includes R88 designs)
Assign classes using reported apparent KD of MS2 coat protein values and the ranges lo (below 20 nM), med (20 nM to below 70 nM), hi (70 nM or more), please.

ordered_residues	assigned_label
AGAAAUAAAAGAGAGGAUAUCCAAAAAGGGACAUGAGGAUCACCCAUGUAAAAGAAAAUAAAAUGGGAGAAGGCUCAAAAUAAAG [80%, More Helter Skelter 2]	hi
GAUAGACAUGAGGAUCACCCAUGUAGAAUUAUGGGAGGAUAUACAAAGACGAGAGUCAGAGUAGAAGGCCUAGGAU [salish99-ss1-157]	med
AAUAAACAUGAGGAUCACCCAUGUACCUACCACUAAGGAUAUGGGCGAAUAACAGCUCGGCCAGAAGGUAGAGGUG [Onususer]	hi

Class for AAAGACAUAGUUCAGGAUAUGGUAAUAGUCACAUGAGGAUCACCCAUGUGCAUUUAUAUGCGCGAUCAGAAGGGAGGUAGAUAAA [SameState2 Malc#17] ? med

Tag the class for AAAAGACAUGAGGAUCACCCAUGUCAAAACGUAGGAGGAUAUGUAUGGAAACCAUACUGUACAGAAGGCCUUUGUC [SS1 - 77] lo

Band for the recorded apparent KD of MS2 coat protein of GAAAAACAUGAGGAUCACCCAUGUAGAAAUAUGGUAGGAUAUACAAAGACGAAAGUCAAAGUAGAAGGGCCAAAAG [Starry Same State 1.4 (mat747 round 1 mod)] ? lo

Record AAACCACAUGAGGAUCACCCAUGUAAAAAAAACACAGGAUAUGGAAACACGAAAGUGAAACCAGAAGGGUGAAAAA [77%, Mat - Mod of Eli, 26] — which class? med

Bin? AUAUAUAUAAGGUAGGAUAUCCAAUAAUCCACAUGAGGAUCACCCAUGUAAAGAAAGAAAAAGUGGGAGAAGGGCCAUAUAUAUA [viburnum 7] med

// return the class label for AUUCCAAAUAGUCAGGAUAUCAGGCGUAAGACAUGAGGAUCACCCAUGUACUUAGUAAAAGUAACUGAGAAGGGACAGGGUGUAA [JR_SS002_Sub407] lo

Categorize the following entry: AACAAUCUAUCUGAGGAUAUGAUGUCAAAGACAUGAGGAUCACCCAUGUCCAGGAAAACUGGAUAUCAGAAGGCAGAUAGAUUGA [SS2: 1104] lo

Tag the class for GGAAAACAUGAGGAUCACCCAUGUGAAAACGUGGGAGGAUAUCCAUGGAAACCAUACUGUGGAGAAGGCCCAUGUC [EteRNA is fun!] med

Class (by measured apparent KD of MS2 coat protein) for ACUAGGAAGAGAGAGGAUAUCCAAAGGAAAACAUGAGGAUCACCCAUGUAAAAGGUAGGAAAUUGGGAGAAGGCUCAAGAGAGAG [salish99-ss2-085] med

Please indicate the class for AGAAAUAAAAGACAGGAUAUCCACUCAAAAACAUGAGGAUCACCCAUGUAAAAGAAAAUAAAAUGGGAGAAGGGUCAAAAUAAGA [Jieux modified + C segment V7] based on its apparent KD of MS2 coat protein. med

###

Test system: MS2 coat protein
assay: apparent KD of MS2 coat protein; designed switch direction (-1 OFF switch, 1 ON switch): -1; higher = weaker reporter binding
test_conditions: input ligand: microRNA oligo, concentration not stated
Reported apparent KD of MS2 coat protein values are given for each entry in this list.
Write the numeric value and follow it with the unit.

Hi! What's the reported apparent KD of MS2 coat protein for AGUGUGGAGACAGGAUAUGAGAAUAGAUAGAAAUCAGAAGGGUCACAUGAGGAUCACCCAUGUAAAGUCUUGAGGAUGAGUGAU [Prohibition 2 - Jieux - Exclusion NG 1] (Eterna round: R96, puzzle: Exclusion NG 1) on MS2 coat protein? 63.9 nM

Identify the measured apparent KD of MS2 coat protein of UUUUUAUAUGAAGGAUAUACUUAACAUGAGGAUCACCCAUGUGGUGUUGUGAGUGAGUGAGUUUAGUAGAAGGUCAUUUCUUUU [JMF's solution 78] (Eterna round: R96, puzzle: Exclusion NG 2) for MS2 coat protein. 411 nM

###

Below, each entry is listed alongside its reported apparent KD of MS2 coat protein.
Tested on: MS2 coat protein
assay: apparent KD of MS2 coat protein; designed switch direction (-1 OFF switch, 1 ON switch): 1; higher = weaker reporter binding
test_conditions: Eterna round: R95; input ligand: none
Express the result in nM but write the number alone.

// worked examples, apparent KD of MS2 coat protein included
ordered_residues	apparent KD of MS2 coat protein, nM
AUCAAAACAAGUUGCAGUGUUCGUCUUUCACAUGAGGAUCACCCAUGUAAUAGCCCAGCGGAAGCACUCGGGCCACC [Arzasola] (puzzle: Sensor for hsa-mir-208a)	31.2
AGAAAACAUGAGGAUCACCCAUGUAUAGUGAAUACAGGAUAUCACCGACGGAAUAAUUGGUGAGAAGGGUGAUCGC [Ceaqu] (puzzle: Same State 1)	23.2
UCUUGGUUUUUGCUCGUUUUUUGUGUUGAACAUGAGGAUCACCCAUGUAUUGUACGGUCCAGUUUAAUAGUGGUCCG [JMF 31] (puzzle: Sensor for hsa-mir-208a)	23.8

So what's the measured apparent KD of MS2 coat protein for this one? AUAAAACAUGAGGAUCACCCAUGUCAACAAAGUCGAGGAUAUGUGCAAAUAAAAUAAGAACCAGAAGGCGAAUAAU [salish99_ss1_r3_049] (puzzle: Same State 1) 37.9

Dear colleague, I am looking for the recorded apparent KD of MS2 coat protein of the following sequence: CGUCCGGCCUGUGCUGGCCGGUGGCUUGUACAUGAGGAUCACCCAUGUUCUUGUGCUGGCUGUUUGCUCGUCUUGUG [salish99_mir208a_r3_021] (puzzle: Sensor for hsa-mir-208a) 61.2

###

System: K4 kissing-loop RNA reporter
assay: apparent KD of K4 kissing-loop reporter; higher = weaker reporter binding
test_conditions: Eterna round: R107; input ligand: none
readout_label: apparent KD of K4 kissing-loop reporter (nM)
Just the number in nM, nothing appended.

If you can, please state the reported apparent KD of K4 kissing-loop reporter value of GGUAGCAUGGCGGCCGCCACUUCAUAUGGAGUGAUGUUCCAGCAUCUUAUAAGACUGAGGUGAGGAAGGACCGGGCCAUGCUACC . 577

###

Test system: MS2 coat protein
assay: apparent KD of MS2 coat protein; higher = weaker reporter binding
test_conditions: Eterna round: R107; input ligand: arginine 13.2 mM
readout_label: apparent KD of MS2 coat protein (nM)
Numeric only. Scale: nM

ordered_residues	unit_abbreviation	apparent KD of MS2 coat protein
AAUAAGCAGCUGCAUCAUGGGUGAGCAGAUACCAGCUAGGAAACUAGCCCUUGGCAGCUGCAACAUGAGGAUCACCCAUGUAAUA [(T)'-(M)'-(T1)-(T2)-(M1)-(M2)_Design5]	nM	47.1

--- query ---
Tell me the measured apparent KD of MS2 coat protein of UGGGAAGGAGGAAGGAGCGCCAUAAGGGUGACUGUCUGGGUACAUGAGGAUCACCCAUGUAGGCAGGUAGGUCGCCUCGCUCUCA [Bibienoned] , please. 10.3

###

Tested on: K4 kissing-loop RNA reporter;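 note: bound reporter read as fluorescence of individual clusters on recovered sequencing chips by microscopy, with normalized cluster intensities fitted with a binding model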
assay: apparent KD of K4 kissing-loop reporter; higher = weaker reporter binding
test_conditions: Eterna round: R107; input ligand: tryptophan 2.4 mM
readout_label: apparent KD of K4 kissing-loop reporter (nM)
Provide the reading as a plain figure in nM.

ordered_residues	apparent KD of K4 kissing-loop reporter / nM
AUUUUUUUAUCAGGAUAUUAGUGAUGUUUGUUUUUGUUAGUGAUGUUGAUAUUUGUUUUAUGUAUUUAAGAAGGGAUUGAGAUGU [sfsmullin]	42.4
CGGAUGUAGUGAUGUUAUAUUAGAUGUAGACGAGGACCGGUACGGCCGCCACUCGUAACGGCUGCUAGCGCGUUGCGAGGUGUGC [ExTryptoA.Cl]	510
AAGUCAUAGGCAGGAUAUGCUUAGUAAUAAGGCCAUAUAUACGUAUAGAGUGAUGUUUUGUACCAGGCAGAAGGGCUACAUCAGU [FMN B Excl V8 (+2A)]	544
CCGCUACCCUCAGGAUAUUAAAUAUUAGUGAUGUUAAUAAACCGAUGGCGAAAGCCAUCGGUAUGUUAAGAAGGGAGGGUAGCGG	965

Give the measured apparent KD of K4 kissing-loop reporter of CCUAUCUCUUACGAUACCAGUCAAUGAUAUUUUAUCAAUGCCCUCACCGAGUGAUGUUCGGACCCUUGGCAGCGUCUGGGAUAGG [pvppimullin] . 191

Query (sequence): GUAUCGCUAGGAGGAUAUUUCAAAUAACCAAUAAAUGGUUAUACGGAGUGAUGUUCCGAUUUACGGAAAGAAGGCCUAGUGAUAC [FMN B 5] ; field requested: apparent KD of K4 kissing-loop reporter 290

Quick one: apparent KD of K4 kissing-loop reporter of AGUGGACGUGUCUAGAGUGAUGUUCCGGAUACCAGACACGAAAGUGUCCCUUGGCAGCCGGAGUGAUGUUCUGGCGUUCACUAAA [Omei KL Theo A Exc B v6] ? 440

Need apparent KD of K4 kissing-loop reporter of CGCAGUGAUGUUGCUAUUAUUCUUGGUUAACGAGGACCGGUACGGCCGCCACUCGAUUUCUAUCUAAUCCAGUGUUUUUUUGAGU [JR_ExcTryptoA_Sub003] , thanks. 204

For the sequence shown here, AAAUAAAUCGGAGGAUAUCCUUCCCACGUCGAAGUACCGUGCUUGAUGGAGUGAUGUUCGAUCAGAGGAGAAGGCCGAUAAAUAA [Same State FMN B GF20] , give the reported apparent KD of K4 kissing-loop reporter. 777

Give its apparent KD of K4 kissing-loop reporter value. Item: UGACUGGACUGAAGGAGCGCUUAACUCCUAGUGAUGUUAGGAUAACGAGACAAAGUCUCGAAGCAGGUAGGUCGCAGUCUAGUCU 128
